experiment: in vivo; conditions: female, Sprague Dawley, rat
assay-endpoint: half-life (min)
Number in min, nothing else.

Q: Dear colleague, I am looking for the recorded half-life of the following compound: `CC(=O)O[C@H]1C(=O)[C@@]2(C)[C@H]([C@H](OC(=O)c3ccccc3)[C@]3(O)C[C@H](OC(=O)[C@H](O)[C@@H](NC(=O)c4ccccc4)c4ccccc4)C(C)=C1C3(C)C)[C@]1(OC(C)=O)CO[C@@H]1C[C@@H]2O`
A: 1.8

###

experiment: in vivo; conditions: female, Sprague Dawley, rat, iv, 3 nmol/kg, Cl
assay-endpoint: clearance (mL/min/kg)
Number in mL/min/kg, nothing else.

Q: Dear colleague, I am looking for the recorded clearance of the following compound: `CC(=O)O[C@H]1C(=O)[C@@]2(C)[C@H]([C@H](OC(=O)c3ccccc3)[C@]3(O)C[C@H](OC(=O)[C@H](O)[C@@H](NC(=O)c4ccccc4)c4ccccc4)C(C)=C1C3(C)C)[C@]1(OC(C)=O)CO[C@@H]1C[C@@H]2O`
A: 11.5

###

assay: in vivo; details: female, Sprague Dawley, rat, iv, 3 nmol/kg
assay-endpoint: Cmax (ng/mL)
Number in ng/mL, nothing else.

Q: Dear colleague, I am looking for the recorded Cmax of the following compound: `CC(=O)O[C@H]1C(=O)[C@@]2(C)[C@H]([C@H](OC(=O)c3ccccc3)[C@]3(O)C[C@H](OC(=O)[C@H](O)[C@@H](NC(=O)c4ccccc4)c4ccccc4)C(C)=C1C3(C)C)[C@]1(OC(C)=O)CO[C@@H]1C[C@@H]2O`
A: 6730

###

test: in vivo; conditions: female, Sprague Dawley, rat, iv, 3 nmol/kg, AUC0-∞
assay-endpoint: AUC(0-inf) (µg·h/mL)
Number in µg·h/mL, nothing else.

Q: Dear colleague, I am looking for the recorded AUC(0-inf) of the following compound: `CC(=O)O[C@H]1C(=O)[C@@]2(C)[C@H]([C@H](OC(=O)c3ccccc3)[C@]3(O)C[C@H](OC(=O)[C@H](O)[C@@H](NC(=O)c4ccccc4)c4ccccc4)C(C)=C1C3(C)C)[C@]1(OC(C)=O)CO[C@@H]1C[C@@H]2O`
A: 9.42

###

assay: in vivo; conditions: female, Sprague Dawley, rat, iv, 3 nmol/kg, Vd
assay-endpoint: Vd (L/kg)
Number in L/kg, nothing else.

Q: Dear colleague, I am looking for the recorded Vd of the following molecule: CC(=O)O[C@H]1C(=O)[C@@]2(C)[C@H]([C@H](OC(=O)c3ccccc3)[C@]3(O)C[C@H](OC(=O)[C@H](O)[C@@H](NC(=O)c4ccccc4)c4ccccc4)C(C)=C1C3(C)C)[C@]1(OC(C)=O)CO[C@@H]1C[C@@H]2O [paclitaxel]
A: 10.1

###

experiment: in vivo; details: female, Sprague Dawley, rat
assay-endpoint: MRT (h)
Number in h, nothing else.

Q: Dear colleague, I am looking for the recorded MRT of the following compound: `CC(=O)O[C@H]1C(=O)[C@@]2(C)[C@H]([C@H](OC(=O)c3ccccc3)[C@]3(O)C[C@H](OC(=O)[C@H](O)[C@@H](NC(=O)c4ccccc4)c4ccccc4)C(C)=C1C3(C)C)[C@]1(OC(C)=O)CO[C@@H]1C[C@@H]2O`
A: 27.9
